The reader will find reported IFNγ release [fold change over control], Donor E, 1 nM antibody values listed item by item below.
Biological target: T1, cell-bound CD73 (human, UniProt P21589 27-549)
T1 sequence (looked up): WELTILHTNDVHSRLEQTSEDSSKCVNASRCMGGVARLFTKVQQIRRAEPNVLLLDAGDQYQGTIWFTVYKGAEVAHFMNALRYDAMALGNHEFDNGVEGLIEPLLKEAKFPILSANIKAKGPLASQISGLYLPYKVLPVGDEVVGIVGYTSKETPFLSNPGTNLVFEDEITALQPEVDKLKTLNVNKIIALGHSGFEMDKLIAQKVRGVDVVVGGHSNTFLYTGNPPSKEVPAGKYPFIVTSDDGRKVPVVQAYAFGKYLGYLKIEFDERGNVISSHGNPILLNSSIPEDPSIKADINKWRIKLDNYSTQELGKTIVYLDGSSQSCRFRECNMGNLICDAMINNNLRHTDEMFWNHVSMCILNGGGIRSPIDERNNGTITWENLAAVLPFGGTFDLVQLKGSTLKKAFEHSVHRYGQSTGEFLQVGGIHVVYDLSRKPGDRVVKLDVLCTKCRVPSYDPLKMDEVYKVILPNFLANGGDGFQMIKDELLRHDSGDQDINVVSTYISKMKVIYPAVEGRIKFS
Experiment: cell-based or functional assay
The figure you give is taken to be in fold; do not add the unit.

>>> value_observed("C5 (antibody, human IgG1, kappa, L234A L235A, V domains shown, Humanized monoclonal antibody; also called anti-CD73 antibody C5) VH: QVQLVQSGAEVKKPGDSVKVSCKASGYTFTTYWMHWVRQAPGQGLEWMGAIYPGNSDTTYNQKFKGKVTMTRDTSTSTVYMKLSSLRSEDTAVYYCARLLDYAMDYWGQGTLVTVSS VL: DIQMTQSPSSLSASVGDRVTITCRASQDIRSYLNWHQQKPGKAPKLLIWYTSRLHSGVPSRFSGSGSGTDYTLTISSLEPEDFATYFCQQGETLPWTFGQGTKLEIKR")
12.4
>>> value_observed("C3 (antibody, human IgG1, kappa, L234A L235A, V domains shown, Humanized monoclonal antibody; also called anti-CD73 antibody C3) VH: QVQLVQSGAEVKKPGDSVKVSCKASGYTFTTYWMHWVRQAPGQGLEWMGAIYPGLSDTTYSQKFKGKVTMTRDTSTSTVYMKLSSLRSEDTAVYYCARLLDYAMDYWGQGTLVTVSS VL: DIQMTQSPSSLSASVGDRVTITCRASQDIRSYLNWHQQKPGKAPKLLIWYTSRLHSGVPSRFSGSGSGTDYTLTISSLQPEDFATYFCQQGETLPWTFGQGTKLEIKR")
14.2

Requested field: IFNγ release [fold change over control], Donor E, 1 nM antibody. Item: C6 (antibody, human IgG1, kappa, L234A L235A, V domains shown, Humanized monoclonal antibody; also called anti-CD73 antibody C6) VH: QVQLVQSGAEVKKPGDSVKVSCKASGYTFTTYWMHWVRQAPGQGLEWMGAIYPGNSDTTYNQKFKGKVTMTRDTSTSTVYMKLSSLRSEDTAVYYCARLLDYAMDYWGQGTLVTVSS VL: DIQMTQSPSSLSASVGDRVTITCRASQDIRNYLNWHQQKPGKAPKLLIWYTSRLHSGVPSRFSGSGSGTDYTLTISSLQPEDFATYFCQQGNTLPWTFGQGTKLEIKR 14
